assay_name: NCI Yeast Anticancer Drug Screen. Data for the bub3 strain (AID 167)
condition_parameters: S. cerevisiae bub3 mutant strain, at 50.0 µM (retest, dose inferred, filed as 5.0), hits give high values
About 79,000 compounds went through this panel and 15% of them were active in at least one assay; those are over-represented in the sample as a whole.
Kindly return yes if reported growth inhibition is no lower than 80%; return no if it is lower.

Previously resolved entries follow.
molecule=Cc1c2ncccc2cc2oc3ccccc3c(=O)c12 class_label=no
molecule=ClC1(Cl)C(Cl)(Cl)C12c1ccccc1-c1ccccc12 class_label=yes
molecule=Fc1ccc2c(c1)Nc1cc(F)cc(F)c1S2 class_label=no
molecule=c1ccc(SSc2ccccc2)cc1 class_label=no
molecule=CC(C)COC(=O)c1ccc(NC(=O)CCl)cc1 class_label=yes
molecule="O=C(O)/C=C/C(=O)Nc1cc2c(cc1Br)-c1ccccc1C2Br (stereo not given)" class_label=no
molecule="COC(C(=O)C1=C2Oc3c4c(cc(O)c3C(=O)C2C2=C(CCCC2)C1=O)OC(C)(C)C=C4)C(C)CCC=C(C)C (stereo not given)" class_label=yes
molecule=O=c1cccccc1[O-].O=c1cccccc1[O-].O=c1cccccc1[O-].[Dy+3] class_label=no

Query: Is growth inhibition for CN1CCN=C1c1ccc(NC(=O)Nc2ccc(NC(=O)Nc3ccc(C4=NCCN4C)cc3)cc2)cc1 at or above 80%?
Reply: yes

Query: Is growth inhibition for O=C1Nc2ccccc2SC1c1ccccc1 (stereo not given) at or above 80%?
Reply: yes

Query: Is growth inhibition for CCC(c1ccc(O)cc1)C(CC)c1ccc(O)c(CN(C)C)c1 (stereo not given) at or above 80%?
Reply: yes
